Where these numbers come from: ChEMBL document CHEMBL3045063

- System: CCRF-CEM
- assay remarks: Cytostatic activity against Homo sapiens (human) CEM cells after 72 hr
- Type: functional, cell-based
measured attribute: IC50 (µM)
The figure you give is taken to be in µM; do not add the unit.

>>> print(df.to_string())
                              smiles_record  assay_target  numeric_value
0  O=C1/C(=N\NC(=S)Nc2ccc(Cl)cc2)c2cc(Cl)ccc2N1Cc1ccc(F)cc1      CCRF-CEM             50

// IC50 lookup, molecule = O=C1/C(=N\NC(=S)Nc2ccc(Cl)cc2)c2cc(Cl)ccc2N1Cc1ccc(Cl)cc1 , result: 68

// IC50 lookup, molecule = O=C1/C(=N\NC(=S)Nc2ccc(Cl)cc2)c2cc(Br)ccc2N1Cc1ccc(F)cc1 , result: 61

// IC50 lookup, molecule = Cc1ccc(NC(=S)N/N=C2\C(=O)N(Cc3ccc(F)cc3)c3ccc(Br)cc32)cc1 , result: 132

// IC50 lookup, molecule = O=C1Nc2ccc(F)cc2/C1=N/NC(=S)Nc1ccc(Cl)cc1 , result: 25

// IC50 lookup, molecule = O=C1Nc2ccc(Cl)cc2/C1=N/NC(=S)Nc1ccc(Cl)cc1 , result: 61

// IC50 lookup, molecule = Cc1ccc(CN2C(=O)/C(=N\NC(=S)Nc3ccc(Cl)cc3)c3cc(Cl)ccc32)cc1 , result: 18

// IC50 lookup, molecule = O=C1Nc2ccc(Br)cc2/C1=N/NC(=S)Nc1ccc(Cl)cc1 , result: 61

// IC50 lookup, molecule = Cc1ccc(NC(=S)N/N=C2\C(=O)Nc3ccc(F)cc32)cc1 , result: 4.8

// IC50 lookup, molecule = O=C1Nc2cc(Cl)c(F)cc2/C1=N/NC(=S)Nc1ccc(Cl)cc1 , result: 48

// IC50 lookup, molecule = Cc1ccc(NC(=S)N/N=C2\C(=O)Nc3cc(Cl)c(F)cc32)cc1 , result: 132

// IC50 lookup, molecule = Cc1ccc(NC(=S)N/N=C2\C(=O)Nc3ccc(Br)cc32)cc1 , result: 6.8

// IC50 lookup, molecule = O=C1/C(=N\NC(=S)Nc2ccc(Cl)cc2)c2cc(F)ccc2N1Cc1ccc(F)cc1 , result: 56

// IC50 lookup, molecule = Cc1ccc(CN2C(=O)/C(=N\NC(=S)Nc3ccc(Cl)cc3)c3cc(Br)ccc32)cc1 , result: 98

// IC50 lookup, molecule = Cc1ccc(NC(=S)N/N=C2\C(=O)N(Cc3ccc(F)cc3)c3ccc(F)cc32)cc1 , result: 2.5

// IC50 lookup, molecule = O=C1/C(=N\NC(=S)Nc2ccc(Cl)cc2)c2cc(Br)ccc2N1Cc1ccc(Cl)cc1 , result: 392
